biological target: M-phase phosphoprotein 8 (Homo sapiens); assay: qHTS Validation Assay for Inhibitors for MPP8 Chromodomain Interactions with Methylated Histone Tails (AID 488949); conditions: AlphaScreen MPP8 binding to H3K9me3 peptide; series mostly up to 57.1 µM; further: nearly all actives have a fitted effect of over 55% in size
Inconclusive results are not listed. Activity calls are given as the source filed them. The call rests on the fitted dose curve; in most records, active means well fitted inhibition curve with a large enough effect; inconclusive means small, poorly fitted or top-dose-only effect; inactive means no such curve, though single readings can be large or run the other way.
Pick from 1 (yes) = active, 0 (no) = inactive when you respond.

Reference set (8 entries):
compound=CC(C)[C@@]1(NC(=O)[C@@H]2C[C@@H]3c4cccc5[nH]cc(c45)C[C@H]3N(C)C2)O[C@@]2(O)[C@@H]3CCCN3C(=O)[C@H](Cc3ccccc3)N2C1=O assigned_label="0 (no)"
compound=CCN(CCCl)Cc1ccccc1Br assigned_label="0 (no)"
compound=CC(=O)NBr assigned_label="0 (no)"
compound=C[N+](C)(C)CCOC(=O)CBr assigned_label="0 (no)"
compound=NCCc1c[nH]c2ccc(C(N)=O)cc12 assigned_label="0 (no)"
compound="CC(N)c1cccc(Cl)c1Cl (configuration not stated)" assigned_label="0 (no)"
compound="NC(Cc1ccc(N(CCCl)CCCl)cc1)C(=O)O (configuration not stated)" assigned_label="0 (no)"
compound=COc1ccc(CNC(=O)/C=C/c2ccc3[nH]cc(CCN(C)C)c3c2)cc1 assigned_label="0 (no)"

What was the test verdict on C[N+](C)(C)CC#CCOC(=O)Nc1cccc(Cl)c1 ?
0 (no)

How about this compound: CCCN1CCc2cc(O)cc3c2[C@H]1Cc1ccc(O)c(O)c1-3
1 (yes)

How about this compound: NCC(O)c1cc(O)c(O)cc1F (configuration not stated)
1 (yes)

How about this compound: COc1ccc2c(c1)[C@@]13CCCC[C@H]1[C@@H](C2)NCC3
0 (no)

Entry source: PubChem BioAssay (NCATS)
